Biological target: T1, P6-AA-12HAA-V
T1 chain: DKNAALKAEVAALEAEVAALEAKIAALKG
Assay: two-hybrid library CCmax;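 note: natural log of median RNA to DNA barcode read ratio; higher means stronger binding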
Details: mean of both orientations
Measurement kind: interaction score
API note: the answer field is a bare number with no unit suffix.

Some binders with known interaction score results, for comparison:
DENAALEAKKAALKAKKAALKAEIAALEG [P5-AA-12HAA-K] | 2.22
DENAALEAKTAALKAKTAALKAEIAALEG [P5-AA-12HAA-T] | 1.5
DENAALEAKAAALKAKAAALKAEIAALEG [P5-AA-12HAA-A] | 1.95

Measured interaction score of DENAALEAKLAALKAKLAALKAEIAALEG [P5-AA-12HAA-L] : 2.39

Measured interaction score of DENAALEAKHAALKAKHAALKAEIAALEG [P5-AA-12HAA-H] : 1.55

Measured interaction score of DENAALEAKDAALKAKDAALKAEIAALEG [P5-AA-12HAA-D] : -1.32
